Biological target: rat NaPi-2b (Rattus norvegicus, UniProt Q9JJ09)
Experiment: Sodium-dependent phosphate uptake of Xenopus oocytes which expressed NaPi-2b (32P)
Conditions: Xenopus oocytes expressing rat NaPi-2b, 32P radioactive phosphorus; read-out: IC50 (phosphate uptake inhibitory activity)
readout: IC50

Example cases with answers are listed next.
CCN(CC)CCN(C)Cc1cccc(C(=O)Nc2ccc(OCCCN3CCCCC3)cc2C(=O)N/N=C/c2ccc(Cl)c(C(F)(F)F)c2)c1 : 3.35 µM
Cc1csc(NC(=O)c2cccc(CN3CCC(N4CCCCC4)CC3)c2)c1C(=O)N/N=C/c1cccc(F)c1 : 4.12 µM
Cc1ccc(/C=N/NC(=O)c2c(NC(=O)c3cccc(CN4CCN(CCO)CC4)c3)sc3c2CCCC3)cc1 : < 3 µM

Task: Find the measured IC50: item COc1ccc(C(=O)Nc2ccc(Br)cc2C(=O)N/N=C/c2ccc(Cl)c(C(F)(F)F)c2)cc1OC , target or system rat NaPi-2b (Rattus norvegicus, UniProt Q9JJ09).
Result: 0.29 µM

Task: Same thing, different molecule: CCN(CC)CCNCc1ccc(C(=O)Nc2ccc(Br)cc2C(=O)N/N=C/c2ccc(OC)cc2)cc1
Result: 9.22 µM

---

The following compounds are listed with their measured IC50 values.
Target: UniProt Q9JJ09
Sequence (Q9JJ09 1-695): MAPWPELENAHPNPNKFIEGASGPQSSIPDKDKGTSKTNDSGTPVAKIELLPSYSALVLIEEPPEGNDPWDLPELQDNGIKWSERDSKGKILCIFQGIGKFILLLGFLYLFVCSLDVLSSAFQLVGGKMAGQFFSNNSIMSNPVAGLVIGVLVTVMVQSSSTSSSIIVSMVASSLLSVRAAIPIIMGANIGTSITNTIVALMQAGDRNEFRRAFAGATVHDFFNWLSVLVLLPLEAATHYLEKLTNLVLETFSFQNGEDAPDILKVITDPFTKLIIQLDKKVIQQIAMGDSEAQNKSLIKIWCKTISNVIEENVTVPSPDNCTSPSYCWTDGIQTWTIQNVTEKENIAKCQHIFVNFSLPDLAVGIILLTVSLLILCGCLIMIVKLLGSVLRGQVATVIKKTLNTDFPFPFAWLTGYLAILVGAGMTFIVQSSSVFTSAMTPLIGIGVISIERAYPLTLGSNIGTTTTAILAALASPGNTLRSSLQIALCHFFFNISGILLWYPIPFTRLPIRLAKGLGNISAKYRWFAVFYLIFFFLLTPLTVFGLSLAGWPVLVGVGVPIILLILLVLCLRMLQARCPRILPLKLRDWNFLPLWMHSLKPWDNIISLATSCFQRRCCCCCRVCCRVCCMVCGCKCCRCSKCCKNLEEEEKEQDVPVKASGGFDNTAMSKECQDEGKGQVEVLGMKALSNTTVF
Test: Sodium-dependent phosphate uptake of Xenopus oocytes which expressed NaPi-2b (32P)
Conditions: Xenopus oocytes expressing rat NaPi-2b, 32P radioactive phosphorus; read-out: IC50 (phosphate uptake inhibitory activity)
Protocol: Pharmacological Test Example 1 Experiment of Sodium-Dependent Phosphate Uptake of Xenopus oocytes which Expressed NaPi-2b Degenerate primers were prepared from sequences of mouse NaPi-2b disclosed in Hilfiker H. et al., Pro Natl Acad Sci USA, 95 (24): 14564-14569, […] and sequences of human and rat NaPi-2a disclosed in Magagnin S. et al., Proc Natl Aca Sci USA, 90 (13): 5979-5983, 1993. RNA was extracted from the rat small intestine using ISOGEN; manufactured by NIPPON GENE CO., LTD (Japan). […]
State the answer as a number, implicitly in µM.

CN(Cc1ccc(C(=O)Nc2ccc(Br)cc2C(=O)N/N=C/c2cccc(F)c2)cc1)CC(O)c1ccc(O)cc1 (centres unmarked) [Compound 725] : 69.4
CN(CCO)Cc1cccc(C(=O)Nc2ccc(Cl)cc2C(=O)N/N=C/c2cccc(O)c2)c1 [Compound 402] : 14.1
CCc1ccc(C(=O)Nc2ccc(Br)cc2C(=O)N/N=C/c2ccc(F)cc2)cc1 [Compound 179] : 18.7
O=C(Nc1ccc(Br)cc1C(=O)N/N=C/c1cccc(F)c1)c1ccc(CNCCCN(CCO)CCO)cc1 [Compound 301] : 15.2
CCN(CC)CCNCc1ccc(C(=O)Nc2ccc(Br)cc2C(=O)N/N=C/c2cccc(F)c2)cc1 [Compound 296] : 1.45

Next:
Task: Name the recorded IC50 for O=C(Nc1ccc(Br)cc1C(=O)N/N=C/c1ccc(F)cc1)c1ccco1 [Compound 152] .
Result: 1.48

---

Target: rat NaPi-2b (Rattus norvegicus, UniProt Q9JJ09)
Construct: expressed in transfected cells; host or cells: Xenopus oocytes injected with cRNA
Sequence (Q9JJ09 1-695): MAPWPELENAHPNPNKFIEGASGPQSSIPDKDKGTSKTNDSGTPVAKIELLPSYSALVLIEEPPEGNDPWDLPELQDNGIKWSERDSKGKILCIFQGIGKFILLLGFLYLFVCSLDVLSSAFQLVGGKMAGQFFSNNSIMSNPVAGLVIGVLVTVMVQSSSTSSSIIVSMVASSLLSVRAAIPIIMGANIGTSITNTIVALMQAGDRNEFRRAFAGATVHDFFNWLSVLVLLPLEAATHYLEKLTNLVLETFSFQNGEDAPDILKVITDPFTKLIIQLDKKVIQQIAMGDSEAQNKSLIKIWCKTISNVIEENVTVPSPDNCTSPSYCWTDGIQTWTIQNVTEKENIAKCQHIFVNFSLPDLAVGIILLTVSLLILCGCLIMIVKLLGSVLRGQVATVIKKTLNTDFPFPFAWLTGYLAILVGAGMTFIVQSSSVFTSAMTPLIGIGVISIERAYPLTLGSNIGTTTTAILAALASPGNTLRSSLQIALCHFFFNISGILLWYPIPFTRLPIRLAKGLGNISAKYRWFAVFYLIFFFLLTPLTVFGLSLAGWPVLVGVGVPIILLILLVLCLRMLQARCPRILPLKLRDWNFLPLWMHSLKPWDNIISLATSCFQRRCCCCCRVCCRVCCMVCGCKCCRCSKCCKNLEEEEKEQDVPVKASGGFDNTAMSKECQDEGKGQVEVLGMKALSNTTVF
Test: Sodium-dependent phosphate uptake of Xenopus oocytes which expressed NaPi-2b (32P)
Format: cell-based
Conditions: Xenopus oocytes expressing rat NaPi-2b, 32P radioactive phosphorus; read-out: IC50 (phosphate uptake inhibitory activity)
Reported pIC50 by item:
For clarity, pIC50 is expressed as the negative log10 of concentration in mol/L.

Below are worked cases with known answers.
Cc1ccc(/C=N/NC(=O)c2cc(Br)ccc2NC(=O)c2ccc(CNCCCN(CCO)CCO)cc2)cc1C [Compound 300] : 5.72
Cc1ccc(/C=N/NC(=O)c2cc(Br)ccc2NC(=O)c2ccc(CN3CCN(CCO)CC3)cc2)cc1 [Compound 317] : 5.30

Task: Query pIC50 on rat NaPi-2b (Rattus norvegicus, UniProt Q9JJ09) for O=C(Nc1ccccc1C(=O)N/N=C/c1cccc(O)c1)c1ccc(F)cc1 [Compound 80]
Result: 4.96

Task: Try this compound too: COc1ccc(C(=O)Nc2ccccc2C(=O)N/N=C/c2ccc(Cl)c(C(F)(F)F)c2)cc1 [Compound 90]
Result: 5.47

Task: Can you check COc1ccccc1/C=C/C=N/NC(=O)c1cc(Br)ccc1NC(=O)c1ccncc1 [Compound 353] next?
Result: 5.05

---

The following molecules are listed with their measured pIC50 values.
Target: rat NaPi-2b (Rattus norvegicus)
Assay: Sodium-dependent phosphate uptake of Xenopus oocytes which expressed NaPi-2b (32P)
Details: Xenopus oocytes expressing rat NaPi-2b, 32P radioactive phosphorus; read-out: IC50 (phosphate uptake inhibitory activity)
API: returns pIC50 as number; meaning -log10 of concentration in mol/L.

Some molecules with recorded pIC50:
O=C(Nc1ccc(Br)cc1C(=O)N/N=C/c1cccc(F)c1)c1ccno1 [Compound 510] : 5.83
COc1ccc(C(=O)Nc2ccc(OCCN(C)C)cc2C(=O)N/N=C/c2ccc(F)cc2)cc1OC [Compound 139] : 4.26
Cc1cccc(/C=N/NC(=O)c2cscc2NC(=O)c2cccc(CN(CC(C)O)CC(C)O)c2)c1 (stereo not shown) [Compound 975] : 4.76

Task: I am curious: what pIC50 value has been reported for O=C(Nc1sc2c(c1C(=O)N/N=C/c1ccc(Cl)c(C(F)(F)F)c1)CCC2)c1cccc(CN2CCC(CO)CC2)c1 [Compound 820] ?
Result: 4.75

Task: Now consider O=C(Nc1ccccc1C(=O)N/N=C/c1ccc(F)cc1)c1ccccc1F [Compound 38] and answer again.
Result: 5.25

Task: Then this molecule: COc1ccc(C(=O)Nc2ccc(Br)cc2C(=O)N/N=C/C=C/c2ccccc2)cc1OC [Compound 13]
Result: 5.04

Task: And what about the molecule Cc1ccc(/C=N/NC(=O)c2cc(N3CCCC3=O)ccc2NC(=O)c2cccc(CN(CC(C)O)CC(C)O)c2)cc1 (stereo not shown) [Compound 948] ?
Result: 4.93

Task: Also Cc1ccc(/C=N/NC(=O)c2cc(F)ccc2NC(=O)c2cc(F)ccc2NC(=O)c2cccc(CN(CC(C)O)CC(C)O)c2)cc1C (stereo not shown) [Compound 986] , if possible.
Result: 4.54

Task: Now give it for O=C(Nc1sc2ccccc2c1C(=O)N/N=C/c1ccc(Cl)c(C(F)(F)F)c1)c1cccc(CN2CCC(CO)CC2)c1 [Compound 802] too.
Result: 5.92

Task: Another: COc1ccc(C(=O)Nc2cc(Cl)ccc2C(=O)N/N=C/c2ccc(F)cc2)cc1OC [Compound 72]
Result: 4.98

Task: What about this molecule? Cc1ccc(/C=N/NC(=O)c2cc(Br)ccc2NC(=O)c2ccc(CN(CC(C)O)CC(C)O)cc2)cc1C (stereo not shown) [Compound 303]
Result: 5.95

Task: Okay, and CCN(CC)CCN(C)Cc1cccc(C(=O)Nc2ccc(OC)cc2C(=O)N/N=C/c2ccc(OC)cc2)c1 [Compound 1024] ?
Result: 5.40

Task: Please give the result for COc1cc(OC)cc(C(=O)Nc2ccc(Br)cc2C(=O)N/N=C/c2cccc(F)c2)c1 [Compound 114] too.
Result: 5.59

Task: Next entry: CCN(CC)CCN(C)Cc1ccc(C(=O)Nc2ccc(Br)cc2C(=O)NN=Cc2ccc(OC)cc2)cc1 [Compound 290]
Result: 5.49

Task: Follow-up item: COc1ccc(C(=O)Nc2ccc(N3CCCCC3)cc2C(=O)N/N=C/c2cccnc2)cc1OC [Compound 936]
Result: 5.25

Task: Now this one: CCN(CC)CCN(C)Cc1ccc(C(=O)Nc2ccc(Br)cc2C(=O)N/N=C/c2cccc(OC)c2)cc1 [Compound 291]
Result: 5.94

Task: Ok, now O=C(Nc1ccccc1C(=O)N/N=C/c1ccc(Cl)c(C(F)(F)F)c1)c1ccccn1 [Compound 508]
Result: 6.32

Task: For O=c1c2c3c(sc2nc(-c2cccc(CSc4nc[nH]n4)c2)n1/N=C/c1cccc(F)c1)CCCC3 [Compound 649] then?
Result: 5.57

Task: Also, Cc1ccc(/C=N/NC(=O)c2cc(Cl)ccc2NC(=O)c2ccc(CN(C)CCO)cc2)cc1C [Compound 416] please.
Result: 5.49
